# credit: PubChem BioAssay AID368

Target: M-phase inducer phosphatase 2 (Homo sapiens) (UniProt P30305)
Sequence (P30305 whole entry, looked up, the tested form may be a part): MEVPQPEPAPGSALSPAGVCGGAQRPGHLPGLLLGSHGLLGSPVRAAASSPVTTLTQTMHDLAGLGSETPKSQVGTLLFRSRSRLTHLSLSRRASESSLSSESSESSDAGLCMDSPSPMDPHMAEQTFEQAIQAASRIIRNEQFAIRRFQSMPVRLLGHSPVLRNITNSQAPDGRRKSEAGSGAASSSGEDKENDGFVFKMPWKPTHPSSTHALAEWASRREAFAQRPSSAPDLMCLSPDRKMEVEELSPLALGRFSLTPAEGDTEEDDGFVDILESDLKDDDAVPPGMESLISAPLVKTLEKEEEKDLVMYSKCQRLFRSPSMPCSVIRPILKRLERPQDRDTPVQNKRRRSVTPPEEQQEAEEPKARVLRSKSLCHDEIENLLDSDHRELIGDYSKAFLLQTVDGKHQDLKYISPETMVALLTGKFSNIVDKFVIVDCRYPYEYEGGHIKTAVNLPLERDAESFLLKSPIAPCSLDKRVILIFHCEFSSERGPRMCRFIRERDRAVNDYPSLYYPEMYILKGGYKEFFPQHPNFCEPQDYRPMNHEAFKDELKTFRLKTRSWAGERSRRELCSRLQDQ
Experiment: inhibitors of Cdc25B phosphatase catalytic domain, primary screen, biochemical, OMFP fluorescence (AID 368)
Settings: recombinant Cdc25B, OMFP fluorescence Ex485/Em525; hits give high values;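 compounds tested at 10 µM final in the well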
The campaign covered roughly 65,000 compounds. About 85 (0.1%) were called active. The full list was thinned out, with actives kept by preference.
Quick list: inhibition per entry.
PROPERTY NAME: inhibition (%)

COMPOUND | ENDPOINT VALUE
CCOC(=O)Cn1c(N)c(C(=O)OC)sc1=S | -11
O=C(c1ccco1)N1CCN=C1SCc1cccc(Cl)c1 | -9.08
CC(Nc1nc(N2CCCC2)nc2ccccc12)c1ccccc1 (configuration not stated) | -6.08
CNC(=O)c1nnn(-c2ccccc2)c1C(=O)NC | 0.211
CCOC(=O)CNC(=O)CN1C(=O)CCSc2ccccc21 | -0.999
CN1C(=O)c2ccc(NC(=O)c3c(F)c(F)c(F)c(F)c3F)cc2C1=O | 2.43
O=c1c2ccccc2oc2nc3n(c(=O)c12)CCCS3 | -1.25
COc1ccc(C(=O)c2oc3ccc(Br)cc3c2NC(C)=O)cc1 | 1.8
O=C(COc1cccc(-n2cnnn2)c1)NCCC1=CCCCC1 | -1.12
N#Cc1ccc(COC(=O)Cn2nnc(-c3ccccc3)n2)cc1 | -19.8
CC(C)C1Cc2c(sc3c2c(=O)n(-c2ccccc2)c2nncn32)CO1 (configuration not stated) | -39.8
CCOC(=O)N1CCN(C(=O)CSc2ccc(Cl)cc2)CC1 | 3.41

====

Biological target: M-phase inducer phosphatase 2 (Homo sapiens)
Test: inhibitors of Cdc25B phosphatase catalytic domain, primary screen, biochemical, OMFP fluorescence (AID 368)
Settings: recombinant Cdc25B, OMFP fluorescence Ex485/Em525; hits give high values;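 compounds tested at 10 µM final in the well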
The whole screen tested about 65,000 compounds, of which about 85 (0.1%) were called active. The sample holds actives, similar compounds and a random draw of the others, so the mix is not that of the screen.
Reported inhibition values for a set of molecules

MOLECULE | TARGET OR SYSTEM | UNIT DESCRIPTOR | inhibition
CC1CN(C(=O)c2ccc3c(c2)OCO3)OC(c2ccccc2)O1 (stereo unspecified) | M-phase inducer phosphatase 2 (Homo sapiens) | % | -8.81
COc1ccc(S(=O)(=O)N(C)CC(=O)Nc2ccc3c(c2)OCCO3)cc1OC | M-phase inducer phosphatase 2 (Homo sapiens) | % | -5.79
CC(C)c1ccc(N2CC(C(=O)Nc3nccs3)CC2=O)cc1 (stereo unspecified) | M-phase inducer phosphatase 2 (Homo sapiens) | % | 3.74
O=C(CC(NS(=O)(=O)c1ccc(Cl)cc1)c1ccco1)NC1CCCC1 (stereo unspecified) | M-phase inducer phosphatase 2 (Homo sapiens) | % | -20.3
O=C1NC(Nc2nc3ccccc3s2)(C(F)(F)F)C(=O)N1C1CCCCC1 (stereo unspecified) | M-phase inducer phosphatase 2 (Homo sapiens) | % | -0.883
O=C(C1CCN(c2nnc(-n3cccc3)s2)CC1)N1CCc2ccccc2C1 | M-phase inducer phosphatase 2 (Homo sapiens) | % | -4.75
c1ccc2c(NCC3CCCO3)nc(-c3ccncc3)nc2c1 (stereo unspecified) | M-phase inducer phosphatase 2 (Homo sapiens) | % | 1.5
O=C(O)[C@@H]1CCCN1c1ncnc2sc3c(c12)CCC3 | M-phase inducer phosphatase 2 (Homo sapiens) | % | 1.46
CCCCc1cc(=O)oc2cc(C)cc(OCc3nn[nH]n3)c12 | M-phase inducer phosphatase 2 (Homo sapiens) | % | -4.64
CCc1c(C)n([O-])c2c([n+]1=O)CCCCC2 | M-phase inducer phosphatase 2 (Homo sapiens) | % | -6.36
COc1cc2cc(CN(CCN3CCCC3)C(=O)Nc3ccccc3Cl)c(=O)[nH]c2cc1OC | M-phase inducer phosphatase 2 (Homo sapiens) | % | -1.08
